tested on: SF-268 CNS; experiment: NCI tumour cell line growth inhibition, 48 h
Where a SMILES comes first, the peptide text is derived from it. [ ]: non-standard residue; d: D form. The star is where a group is joined. ξ: configuration not given here. ξPhe(4-NO2) = NC(Cc1ccc([N+](=O)[O-])cc1)C(=O)O; Boc = CC(C)(C)OC(=O)*
Could you please report measured TGI for the items listed next?

Quick one: TGI for OC1(C2(c3ccc(Cl)cc3)CCCC2)c2ccccc2C2=NCCN21 (stereo unspecified) ?
35.1 µM

Quick one: TGI for ClCCc1ccccc1CC1=NCCc2ccccc21 ?
> 100 µM

Quick one: TGI for NS(=O)(=O)c1nnc(NC(=O)/C=C/C(=O)O)s1 ?
> 100 µM

Quick one: TGI for COc1cc2c3c(c1OC)C(=O)C(=O)C1=C3N(CCC1)CC2 ?
92.1 µM

Quick one: TGI for CS(=O)(=O)CCC(N)P(=O)(O)O (stereo unspecified) ?
> 100 µM

Quick one: TGI for NC(Cc1c[nH]c2cc(F)ccc12)C(=O)O (stereo unspecified) ?
> 2500 µM

Quick one: TGI for C=C(C)C1CC2=C(O1)C(=O)c1cccc(O)c1C2=O (stereo unspecified) ?
1.47 µM

Quick one: TGI for CCCc1n(Cc2ccc3ccccc3n2)cc[n+]1Cc1ccc2ccccc2c1 ?
10.6 µM

Quick one: TGI for CCC1(N)C(=O)OCc2c1cc1n(c2=O)Cc2cc3ccccc3nc2-1 (stereo unspecified) ?
> 100 µM

Quick one: TGI for CCCCCCC(=O)c1ccc2ccccc2c1O ?
> 100 µM

Quick one: TGI for COC(=O)C1SC[C@H]2C(=O)N(c3ccccc3)C(=O)N12 (stereo partly specified) ?
> 100 µM

Quick one: TGI for N.N.NCCCCCN.O=C([O-])CC(=O)[O-].O=C([O-])CC(=O)[O-].[Pt+4].[Pt+4] ?
> 100 µM

Quick one: TGI for O=S(=O)(NCCNc1cc(-c2cn(-c3ccccc3)nc2-c2cccc(O)c2)ccn1)c1ccc(Br)cc1 ?
7.06 µM

Quick one: TGI for O=C(Nc1ccc(-n2ccc3c(NC(=O)c4ccccc4)nccc32)cc1)c1ccc(N2CCOCC2)c(C(F)(F)F)c1 ?
> 77.1 µM

Quick one: TGI for CC(C)C1NC(=O)[C@H](C)OC(=O)[C@@H](C(C)C)NC(=O)[C@@H](C)OC(=O)C(C(C)C)NC(=O)[C@H](C)OC1=O (stereo partly specified) ?
> 100 µM

Quick one: TGI for NC(Cc1ccc(O)cn1)C(=O)O (stereo unspecified) ?
> 100 µM

Quick one: TGI for Cc1nn(C(=O)c2ccncc2)c2c1C(c1ccc([N+](=O)[O-])cc1)SC(N)=N2 (stereo unspecified) ?
> 100 µM

Quick one: TGI for CN=C(N)NC ?
> 100 µM

Quick one: TGI for CC1(C)Oc2ccccc2[N+]([O-])=C1c1ccccc1 ?
> 100 µM

Quick one: TGI for CCOC(OCC)[C@H](N)[C@@H](O)[C@@H](O)[C@H]1COC(C)(C)O1 ?
> 100 µM

Quick one: TGI for COC(=O)[C@H](Cc1cn(C)cn1)NC(=O)[C@@H](NC(=O)Nc1cc(C(F)(F)F)cc(C(F)(F)F)c1)C(C)(C)C ?
> 10 µM

Quick one: TGI for COc1ccc2c(c1)c(-c1ccc(-c3cn(C)c4ccc(OC)cc34)o1)cn2C ?
> 100 µM

Quick one: TGI for COc1ccc2[nH]c3c(C)c4ncccc4c(C)c3c2c1 ?
> 10 µM

Quick one: TGI for CC1(C)CC[C@]2(C(=O)O)CC[C@]3(C)C(=CC[C@@H]4[C@@]5(C)CC[C@H](OC6OC(CO)C(O)C(O)C6O)C(C)(C)[C@@H]5CC[C@]43C)[C@@H]2C1 (stereo partly specified) ?
3.51 µM

Quick one: TGI for CNC(=S)N(C1CCCCC1)C1CCCCC1 ?
> 100 µM

Quick one: TGI for CCSc1nc(C)nc2c1sc1nc3ccccc3n12 ?
> 100 µM

Quick one: TGI for COc1cccc(NC(=O)c2ccc(NC3=C(Cl)C(=O)N(Cc4ccccc4)C3=O)cc2)c1 ?
37.4 µM

Quick one: TGI for Cc1ccc2c(c1)-c1oc(=O)c(-c3cc4ccccc4oc3=O)cc1C(O)O2 (stereo unspecified) ?
> 100 µM

Quick one: TGI for COc1ccc(NC(=S)Nc2c(C)n(C)n(-c3ccccc3)c2=O)cc1 ?
> 100 µM

Quick one: TGI for Fc1ccc2c(c1)cc1ccc3cccc4ccc2c1c34 ?
> 100 µM

Quick one: TGI for C=COC(=O)N1C2CCCC(Cl)(C(C)=O)C1CC2 (stereo unspecified) ?
> 100 µM

Quick one: TGI for c1ccc(N2N=C3N(c4ccccc4)C2N3c2ccccc2)cc1 ?
> 100 µM

Quick one: TGI for CCOC(=O)NC(=O)c1cn(C2OC(COC(=O)CCCCCCCCC(=O)OCC3OC(n4cc(C(=O)NC(=O)OCC)c(=O)[nH]c4=O)C4OC(C)(C)OC34)C3OC(C)(C)OC32)c(=O)[nH]c1=O (stereo unspecified) ?
> 100 µM

Quick one: TGI for COc1cc2ccc3c4cc(OC)c(OC(C)C)cc4c[n+](C)c3c2cc1OC ?
> 100 µM

Quick one: TGI for CC1(C)/C(=N\Nc2ccc([N+](=O)[O-])cc2[N+](=O)[O-])C2CCC1C2 (stereo unspecified) ?
> 100 µM

Quick one: TGI for CCNC(=O)CNC(=O)C(Cc1ccc([N+](=O)[O-])cc1)NC(=O)OC(C)(C)C (stereo unspecified) (Boc-[ξPhe(4-NO2)]-Gly-NHEt) ?
> 100 µM

Quick one: TGI for Cc1nc(-n2nc(-c3ccccc3)cc2-c2ccccc2)sc1C(=O)/C=C/c1ccc(Cl)cc1 ?
> 100 µM

Quick one: TGI for Cc1ccc(N2C3=C(CC4=C2CC(C)(C)CC4=O)C(=O)CC(C)(C)C3)cc1 ?
> 100 µM

Quick one: TGI for CCOc1cc(/C=C2\N=C(c3ccccc3)N(c3nc4ccccc4s3)C2=O)ccc1O ?
> 100 µM

Quick one: TGI for Cc1ccc(NC(=S)N=Nc2c(O)[nH]c3ccccc23)cc1 ?
> 100 µM

Quick one: TGI for COc1ccc(/C=C2\CCc3ccccc3C2=O)cc1OC ?
62.6 µM
